- assayNotes: NCI Yeast Anticancer Drug Screen. Data for the cln2 rad14 strain (AID 165);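 further: 0% = growth equal to vehicle treated cultures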
- experimentalParameters: S. cerevisiae cln2 rad14 strain, at 50.0 µM, stronger effect = higher value
This is part of a sample that, as a whole, favours compounds with a hit. Of some 79,000 tested, about 15% had one in any assay.
Please note: yes (1) applies when growth inhibition is 40% or greater, and no (0) applies otherwise.

Say whether CCN(CC)C(=O)CCCC1CCCCC1 shows growth inhibition of 40% or more.
no (0)

Entry CN(C)CC1(C)CC/C(=C\c2ccc(Cl)cc2)C1=O (stereo not given) please
yes (1)

Entry Cc1c(N=Nc2c(S(=O)(=O)O)cc3cc(S(=O)(=O)O)c(N=Nc4c(C)n(C)n(-c5ccccc5)c4=O)c(O)c3c2O)c(=O)n(-c2ccccc2)n1C please
no (0)

Entry [N-]=[N+]=Nc1c(-c2ccccc2)c(=O)n(-c2ccccc2)c2ccccc12 please
yes (1)

Entry [O-][N+]1=C2CCC/C(=N/O)C2(O)C2CCCCC21N1CCOCC1 (stereo not given) please
no (0)
